measured_on: T1, human APRIL protein (human, UniProt O75888 105-250, limits assumed)
T1 construct: Bought protein; also called recombinant APRIL protein
T1 sequence (looked up): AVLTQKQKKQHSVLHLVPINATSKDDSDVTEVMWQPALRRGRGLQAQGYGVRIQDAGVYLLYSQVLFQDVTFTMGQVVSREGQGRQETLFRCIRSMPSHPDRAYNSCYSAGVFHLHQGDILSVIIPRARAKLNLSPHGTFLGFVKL
measurement_protocol: ELISA, coated APRIL; antibody 13.3 nM
Each entry below carries its reported OD450 nm.
Form rule: numeric answer, no unit written next to it.

Some binders with recorded OD450 nm:
67A2E1D10 (antibody, V domains shown, Mouse hybridoma antibody purified on Protein G) VH: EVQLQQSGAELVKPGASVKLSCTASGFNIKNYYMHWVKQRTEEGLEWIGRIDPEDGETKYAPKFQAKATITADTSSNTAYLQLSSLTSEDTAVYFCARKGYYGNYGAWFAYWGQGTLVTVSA VL: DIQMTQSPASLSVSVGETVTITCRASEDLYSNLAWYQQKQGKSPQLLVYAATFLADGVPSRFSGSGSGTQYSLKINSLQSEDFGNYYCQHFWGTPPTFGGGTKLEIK | 0.0898
L9G7 (antibody, human IgG1, V domains shown) VH: QIQLVQSGAEVKKPGASVKVSCKASGYTFTSYGISWVRQAPGQGLEWMGWISAYNGNTNYAQKLQGRVTMTTDTSTSTAYMELRSLRSDDTAVYYCARTYYDILTGYYYYGMDVWGQGTTVTVSS VL: EIVLTQSPGTLSLSPGERATLSCRTSQSVDTYLAWYQQKPGQAPRLLIYDASNRATGIPARFSGSGSGTDFTLTISSLEPEDFAVYYCQQRSNWPLTFGGGTKVEIK | 0.107
35E6F7C3 (antibody, V domains shown, Mouse hybridoma antibody purified on Protein G) VH: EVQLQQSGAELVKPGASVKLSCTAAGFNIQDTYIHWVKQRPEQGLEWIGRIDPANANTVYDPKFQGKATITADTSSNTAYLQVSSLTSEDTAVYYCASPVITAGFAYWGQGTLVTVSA VL: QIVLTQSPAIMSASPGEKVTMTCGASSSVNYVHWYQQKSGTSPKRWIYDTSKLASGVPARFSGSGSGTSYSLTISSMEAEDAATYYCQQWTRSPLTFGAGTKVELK | 0.0567
111D10D6G3 (antibody, V domains shown, Mouse hybridoma antibody purified on Protein G) VH: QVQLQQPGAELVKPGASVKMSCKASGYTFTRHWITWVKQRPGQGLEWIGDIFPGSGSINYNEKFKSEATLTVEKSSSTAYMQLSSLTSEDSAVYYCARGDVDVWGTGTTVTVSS VL: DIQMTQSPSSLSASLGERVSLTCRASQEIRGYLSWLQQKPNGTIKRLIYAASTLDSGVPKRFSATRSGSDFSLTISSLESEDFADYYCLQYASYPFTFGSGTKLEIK | 0.0573

Then this binder:
I am curious: what OD450 nm value has been reported for 2-1G11 (antibody, human IgG1, V domains shown) VH: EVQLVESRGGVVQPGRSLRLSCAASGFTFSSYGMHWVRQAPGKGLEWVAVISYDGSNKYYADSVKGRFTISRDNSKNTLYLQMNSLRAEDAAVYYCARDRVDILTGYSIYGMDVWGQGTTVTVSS VL: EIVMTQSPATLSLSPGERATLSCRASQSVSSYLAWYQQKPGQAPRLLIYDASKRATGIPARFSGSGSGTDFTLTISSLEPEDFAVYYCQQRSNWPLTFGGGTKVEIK ?
0.137

The reported numbers originate from patent US20210347873A1.
